Molecular target: PPARα (Homo sapiens)
Sequence (Q07869 167-468 limits assumed): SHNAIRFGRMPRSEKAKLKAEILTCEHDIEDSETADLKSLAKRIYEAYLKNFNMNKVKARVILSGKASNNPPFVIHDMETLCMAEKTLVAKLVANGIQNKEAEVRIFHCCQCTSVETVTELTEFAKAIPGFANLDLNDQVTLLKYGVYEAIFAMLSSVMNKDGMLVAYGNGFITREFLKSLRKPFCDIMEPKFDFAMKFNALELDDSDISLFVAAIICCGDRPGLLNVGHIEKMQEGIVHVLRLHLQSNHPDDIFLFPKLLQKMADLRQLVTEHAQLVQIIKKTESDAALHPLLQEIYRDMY
Assay: PPARα radioligand binding assay (SPA, GST-PPARα-LBD fusion protein)
Conditions: SPA beads
MEASURE NAME: IC50 (nM)
Quick note: give the figure in nM, leave out the unit.

MOLECULE: CCOC(Cc1ccc(OCCCc2nc(-c3ccc(C(C)(C)C)cc3)sc2C)cc1C)C(=O)O (racemic)
IC50 (nM): 15
//
MOLECULE: CCOC(Cc1ccc(OCc2csc(-c3ccc(Cl)cc3)n2)cc1C)C(=O)O (racemic)
IC50 (nM): 109

Return reported IC50 for target or system PPARα (Homo sapiens), item CCO[C@@H](Cc1ccc(OCc2csc(-c3ccc(Cl)cc3)n2)cc1C)C(=O)O .
24

---

MEASURE NAME: melting point

Example entries and their recorded answers appear below.
MOLECULE: CCOC(Cc1ccc(OCCc2nc(-c3ccc(C(C)(C)C)cc3)sc2C)c2ccccc12)C(=O)O (racemic)
melting point: 90 to 93 °C
--
MOLECULE: COc1cc(OC)cc(-c2nc(CCOc3ccc(CC(OC)C(=O)O)c4sccc34)c(C)s2)c1 (racemic)
melting point: 156 to 157 °C
--
MOLECULE: Cc1sc(-c2ccccc2)nc1CCOc1ccc(CC(OC(C)C)C(=O)O)c2sccc12 (racemic)
melting point: 73 °C
--
MOLECULE: COC(Cc1ccc(OCc2sc(-c3ccc(C(F)(F)F)cc3)nc2C)c2ccccc12)C(=O)O (racemic)
melting point: 190 to 192 °C
--
MOLECULE: CCCOC(Cc1ccc(OCCc2nc(-c3ccccc3)sc2C)c2ccccc12)C(=O)O (racemic)
melting point: 95 to 99 °C

Give me measured melting point, please, for this molecule: CCCOC(Cc1ccc(OCCc2nc(-c3ccc(C(C)(C)C)cc3)sc2C)c2ccsc12)C(=O)O (racemic)
76 °C

---

Target: PPARα (Homo sapiens)
Assay: Luciferase transcriptional reporter gene assay, BHK21 cells transfected with pFA-PPARα-LBD
Format: cell-based
Conditions: 24 hours incubation
Overview of reported pEC50 across a group of compounds:
Please keep in mind that pEC50 is minus log10 of the molar concentration; only the number is needed.

Return pEC50 (reported value) for this compound: CCOC(Cc1ccc(OCCc2nc(-c3cc(OC)cc(OC)c3)sc2C)c(OC)c1)C(=O)O (racemic)
6.29

Provide measured pEC50 value, entry: CCOC(Cc1ccc(OCc2csc(-c3ccc(Cl)cc3)n2)c2ccoc12)C(=O)O (racemic)
7.27

---

The entries below come with measured IC50 values attached.
Target: PPARα (Homo sapiens)
Sequence (Q07869 167-468 limits assumed): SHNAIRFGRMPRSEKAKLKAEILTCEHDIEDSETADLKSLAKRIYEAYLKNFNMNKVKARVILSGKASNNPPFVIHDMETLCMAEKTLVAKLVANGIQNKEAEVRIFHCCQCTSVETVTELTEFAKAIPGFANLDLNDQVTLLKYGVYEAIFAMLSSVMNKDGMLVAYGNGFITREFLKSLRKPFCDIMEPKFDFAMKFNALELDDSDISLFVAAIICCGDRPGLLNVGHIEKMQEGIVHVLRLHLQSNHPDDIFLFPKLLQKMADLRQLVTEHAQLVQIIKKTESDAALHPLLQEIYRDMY
Assay: PPARα radioligand binding assay (SPA, GST-PPARα-LBD fusion protein)
Settings: SPA beads
Number in µM, nothing else.

Illustrative cases are given below, each with its answer.
COMPOUND: CCOC(Cc1ccc(OCc2csc(-c3ccc(C(C)C)cc3)n2)c(C)c1)C(=O)O (racemic)
TEST TARGET: PPARα (Homo sapiens)
IC50 [µM]: 0.133
//
COMPOUND: CCOC(Cc1ccc(OCCc2nc(-c3cc(OC)cc(OC)c3)sc2C)c(OC)c1)C(=O)O (racemic)
TEST TARGET: PPARα (Homo sapiens)
IC50 [µM]: 0.095
//
COMPOUND: CCOC(Cc1ccc(OCCc2nc(-c3ccc(OC(F)(F)F)cc3)sc2C)c(C)c1)C(=O)O (racemic)
TEST TARGET: PPARα (Homo sapiens)
IC50 [µM]: 0.037
//
COMPOUND: CCOC(Cc1ccc(OCCCc2csc(-c3ccc(C(C)C)cc3)n2)c(F)c1)C(=O)O (racemic)
TEST TARGET: PPARα (Homo sapiens)
IC50 [µM]: 0.05

Return value of IC50 for input CCOC(Cc1ccc(OCCc2csc(-c3ccc(C(F)(F)F)cc3)n2)c(F)c1)C(=O)O (racemic) , no commentary.
0.37

Give the reported value of IC50 for this record: CCOC(Cc1ccc(OCc2csc(-c3ccc(Cl)cc3)n2)c2ccoc12)C(=O)O (racemic)
0.114

Input CCO[C@@H](Cc1ccc(OCc2csc(-c3cccc(Cl)c3)n2)cc1C)C(=O)O , output reported IC50.
0.089

Attribution: patent US6809110B2
